All values here come from ChEMBL document CHEMBL1125581.

molecular target: Muscarinic acetylcholine receptor M2 (Rattus norvegicus, UniProt P10980); test: The compound was tested for the inhibition of binding of [3H]N-Methyl-scopolamine to muscarinic acetylcholine receptor M2 of rat heart tissue membranes; type: cell membranes, Membrane
Sequence (P10980 whole entry): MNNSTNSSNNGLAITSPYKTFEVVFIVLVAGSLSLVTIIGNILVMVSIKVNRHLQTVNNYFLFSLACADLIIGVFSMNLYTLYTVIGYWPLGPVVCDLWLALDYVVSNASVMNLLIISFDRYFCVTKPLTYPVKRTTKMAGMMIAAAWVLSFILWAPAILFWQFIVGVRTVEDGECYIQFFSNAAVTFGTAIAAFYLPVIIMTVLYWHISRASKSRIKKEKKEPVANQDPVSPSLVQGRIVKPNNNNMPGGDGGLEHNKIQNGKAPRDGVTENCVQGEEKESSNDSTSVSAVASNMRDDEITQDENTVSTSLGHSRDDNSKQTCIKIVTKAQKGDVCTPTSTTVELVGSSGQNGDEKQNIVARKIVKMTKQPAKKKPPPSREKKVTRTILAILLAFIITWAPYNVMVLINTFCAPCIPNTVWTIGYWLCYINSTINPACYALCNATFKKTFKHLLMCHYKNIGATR
parameter-measured: Ki (µM)
Numeric answer only, unit µM assumed.

Task: Answer with reported Ki of CN1CCN(CC(=O)N2c3cc(CO[Si](C)(C)C(C)(C)C)ccc3C(=O)Nc3cccnc32)CC1
Result: 4.4

====

target: Muscarinic acetylcholine receptor M1 (Rattus norvegicus); test: Inhibition of binding of [3H]N-methylscopolamine to muscarinic acetylcholine receptor M1 of transfected rat A9L cells.; assay type: cell-based
Sequence (P08482 whole entry): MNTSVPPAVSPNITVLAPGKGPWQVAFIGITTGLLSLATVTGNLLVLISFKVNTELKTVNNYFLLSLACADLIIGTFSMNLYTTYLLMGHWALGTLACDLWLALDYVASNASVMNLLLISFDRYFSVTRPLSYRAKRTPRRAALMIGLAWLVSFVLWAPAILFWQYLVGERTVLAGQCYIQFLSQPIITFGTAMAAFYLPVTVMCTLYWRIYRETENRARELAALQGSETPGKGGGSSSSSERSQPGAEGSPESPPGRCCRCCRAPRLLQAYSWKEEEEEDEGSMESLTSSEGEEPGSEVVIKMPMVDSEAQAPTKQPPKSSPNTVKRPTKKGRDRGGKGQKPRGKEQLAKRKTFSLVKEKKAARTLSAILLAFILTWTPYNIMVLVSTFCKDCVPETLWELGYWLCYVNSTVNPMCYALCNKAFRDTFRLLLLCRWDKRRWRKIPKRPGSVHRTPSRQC
parameter-measured: Ki (µM)
# number only, unit µM dropped from output

Worked set:
CC(C)(C)OC(=O)NCCC(=O)NCCN1CCN(CC(=O)N2c3ccccc3C(=O)Nc3cccnc32)CC1: 13.3
NCCCCCCN1CCN(CC(=O)N2c3ccccc3C(=O)Nc3cccnc32)CC1: 1.31
NCCC(=O)NCCN1CCN(CC(=O)N2c3ccccc3C(=O)Nc3cccnc32)CC1: 4.34
O=C1Nc2cccnc2N(C(=O)CN2CCN(CCCCN3C(=O)c4ccccc4C3=O)CC2)c2ccccc21: 0.17
O=C1Nc2cccnc2N(C(=O)CN2CCN(Cc3ccccc3)CC2)c2ccccc21: 0.33
CN1CCN(CC(=O)N2c3cc(CO)ccc3C(=O)Nc3cccnc32)CC1: 4.4
NCCCC(=O)NCCN1CCN(CC(=O)N2c3ccccc3C(=O)Nc3cccnc32)CC1: 9.53
Cc1scc2c1N(C(=O)CN1CCN(C)CC1)c1ccccc1NC2=O [TELENZEPINE]: 0.0018

Task: Assign Ki to the following record: NCCNC(=O)c1ccc(CN2CCN(CC(=O)N3c4ccccc4C(=O)Nc4cccnc43)CC2)cc1
Result: 1.39
